Target: apelin receptor (Homo sapiens, UniProt P35414)
Sequence (P35414 whole entry): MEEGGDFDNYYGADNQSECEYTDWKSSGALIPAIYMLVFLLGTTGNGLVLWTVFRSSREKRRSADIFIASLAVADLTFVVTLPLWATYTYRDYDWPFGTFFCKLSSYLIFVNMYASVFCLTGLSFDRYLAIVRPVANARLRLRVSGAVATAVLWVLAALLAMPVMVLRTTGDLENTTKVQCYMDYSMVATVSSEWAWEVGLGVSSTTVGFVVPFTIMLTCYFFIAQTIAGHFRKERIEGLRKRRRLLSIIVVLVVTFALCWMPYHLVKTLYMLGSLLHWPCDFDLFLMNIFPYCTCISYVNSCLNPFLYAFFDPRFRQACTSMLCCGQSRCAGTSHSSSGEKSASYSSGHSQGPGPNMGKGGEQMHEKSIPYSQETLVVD
Experiment: β-Arrestin recruitment assay (DiscoverX AGTRL1)
Type: cell-based
Set-up: host or cells: CHO-K1
Details: CHO-K1 cells expressing human apelin receptor; 90 min, 37 °C; mean ± SEM, n = 3-4 independent experiments; SEM; read-out: β-Arrestin Assay pD2±SEM (converted)
Ends that are not written are not given here.
test readout: EC50

LVQPRGSRNGPGPWQGGRRKFRRQRPRASHKGPMPF [Apelin-36-[L28A]] : 37.2 nM
LVQPRGSRNGPGPWQGGRRKFRRQRPRLSHKGPMPA [Apelin-36-[F36A]] : 8.13 nM
LVQPRGSRNGPGPWQGGRRKFRRQRPRLSHKGPMPF [Apelin-36] : 0.676 nM

Query string: Return value of EC50 for input LVQPRGSRNGPGAWQGGRRKFRRQRPRASHKGPMPF [Apelin-36-[A13 A28]] , no commentary.
Result string: 151 nM
